Would you kindly list Activity for each of these molecules?
# system-name: UniProtKB P41146
# Sequence (P41146 whole entry): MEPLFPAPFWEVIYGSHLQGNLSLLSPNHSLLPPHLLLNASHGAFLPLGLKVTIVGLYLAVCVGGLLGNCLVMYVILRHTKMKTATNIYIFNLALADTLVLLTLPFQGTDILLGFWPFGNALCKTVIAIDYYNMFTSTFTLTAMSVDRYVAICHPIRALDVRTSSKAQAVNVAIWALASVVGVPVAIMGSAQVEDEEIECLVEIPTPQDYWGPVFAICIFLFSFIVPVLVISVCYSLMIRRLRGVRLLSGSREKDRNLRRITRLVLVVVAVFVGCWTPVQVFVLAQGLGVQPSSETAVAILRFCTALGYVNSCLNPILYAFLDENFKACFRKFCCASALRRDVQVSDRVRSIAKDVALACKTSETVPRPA
# measurement-notes: Partial agonist activity at human ORL1 receptor expressed in African green monkey COS7 cells after 90 mins by topcount analysis
# Assay type: cell-based
# run-conditions: COS-7
Response body: numeric value in %, unit text excluded.

Record lookup: for UniProtKB P41146, what Activity belongs to `CCC(=O)N[C@@H](CCCNC(=N)N)C(=O)N[C@@H](Cc1ccc(O)cc1)C(=O)N[C@@H](Cc1ccc(O)cc1)C(=O)N[C@@H](CCCNC(=N)N)C(=O)N[C@H](C(=O)N[C@@H](CCCCN)C(N)=O)[C@@H](C)CC` ?
46

Record lookup: for UniProtKB P41146, what Activity belongs to `CC[C@H](C)[C@H](NC(=O)[C@H](CCCN=C(N)N)NC(=O)[C@H](Cc1ccc(O)cc1)NC(=O)[C@H](Cc1ccc(O)cc1)NC(=O)[C@H](CCCN=C(N)N)NC(C)=O)C(=O)N[C@@H](CCCCN)C(N)=O` ?
60

Record lookup: for UniProtKB P41146, what Activity belongs to `CC[C@H](C)[C@H](NC(=O)[C@H](CCCNC(=N)N)NC(=O)[C@H](Cc1ccc(O)cc1)NC(=O)[C@H](Cc1ccc(O)cc1)NC(=O)[C@H](CCCNC(=N)N)NC(=O)CC(C)C)C(=O)N[C@@H](CCCCN)C(N)=O` ?
0

Record lookup: for UniProtKB P41146, what Activity belongs to `CC[C@H](C)[C@H](NC(=O)[C@H](CCCNC(=N)N)NC(=O)[C@H](Cc1ccc(O)cc1)NC(=O)[C@H](Cc1ccc(O)cc1)NC(=O)[C@H](CCCNC(=N)N)NC(=O)C(C)C)C(=O)N[C@@H](CCCCN)C(N)=O` ?
14
